Values compiled from PubChem BioAssay AID2060907.

# System: 388556-164-R-J1-PDC complex spheroid viability;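 also: spheroids exposed to compound for 7 days before readout; 100% = DMSO vehicle control luminescence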
# ASSAY METHOD TEXT: Anticancer human tumor 388556-164-R-J1-PDC patient-derived colon adenocarcinoma cell line growth inhibition [RAS]
# CONDITION DESCRIPTION: second compound 3.16 µM; first compound 0.0316 µM; hits give low values
OBSERVABLE: viability, T/C (%)
State just the number; it will be interpreted in %.

Solved entries (count: 2):
O=C(c1ccc(F)c(F)c1Nc1ccc(I)cc1F)N1CC(O)([C@@H]2CCCCN2)C1 + C#Cc1c(F)ccc2cc(O)cc(-c3ncc4c(N5CC6CCC(C5)N6)nc(OCC56CCCN5CC(F)C6)nc4c3F)c12; 61.8
NC1c2ccccc2OC12CCN(c1cnc3c(N4CCCc5ncccc54)n[nH]c3n1)CC2 (centres undefined) + C#Cc1c(F)ccc2cc(O)cc(-c3ncc4c(N5CC6CCC(C5)N6)nc(OCC56CCCN5CC(F)C6)nc4c3F)c12; 51.2

Qu. Look up and report measured viability, T/C for this entry: CC(C)NCC(C(=O)N1CCN(c2ncnc3c2C(C)CC3O)CC1)c1ccc(Cl)cc1 (centres undefined) + C#Cc1c(F)ccc2cc(O)cc(-c3ncc4c(N5CC6CCC(C5)N6)nc(OCC56CCCN5CC(F)C6)nc4c3F)c12
Ans. 80.6

Qu. Look up and report measured viability, T/C for this entry: C[C@@H](NC(=O)c1ncnc(N)c1Cl)c1ncc(C(=O)Nc2cc(C(F)(F)F)c(Cl)cn2)s1 + C#Cc1c(F)ccc2cc(O)cc(-c3ncc4c(N5CC6CCC(C5)N6)nc(OCC56CCCN5CC(F)C6)nc4c3F)c12
Ans. 103
